assay: Toxicity in Kunming mouse assessed as survival rat at 200 mg/kg, po dosed once for 2 weeks; format: organism-based; conditions: in vivo
RECORDED_METRIC: survival at 336 h (%)
Kindly answer with a numeric value in %, unit omitted.

{"SMILES_CODE": "Cc1nc(Nc2ncc(-c3nnc(-c4c(C)cccc4Cl)o3)s2)cc(N2CCN(CCO)CC2)n1", "UNIT_OF_MEASUREMENT": "%", "NUMERIC_RESULT": 100}

Recorded survival at 336 h (compound `Cc1nc(Nc2ncc(-c3cn(-c4c(C)cccc4Cl)nn3)s2)cc(N2CCN(CCO)CC2)n1` ): 100

So, `Cc1nc(Nc2ncc(C(=O)Nc3c(C)cccc3Cl)s2)cc(N2CCN(CCO)CC2)n1` ? Its survival at 336 h was 100

----------
system: HL-60; experiment: Growth inhibition of human HL60 cells; type: functional, cell-based
pIC50: −log10 of the molar value.
Kind request: treat 8 as inclusive, so pIC50 at 8 or higher is yes (1), anything lower is no (0).

{"SMILES_CODE": "Cc1nc(Nc2ncc(-c3nnc(-c4c(C)cccc4Cl)o3)s2)cc(N2CCN(CCNC(=O)CCl)CC2)n1", "CLASS_NAME": "no (0)"}
{"SMILES_CODE": "Cc1nc(Nc2ncc(-c3cn(-c4c(C)cccc4Cl)nn3)s2)cc(N2CCN(CCO)CC2)n1", "CLASS_NAME": "yes (1)"}
{"SMILES_CODE": "Cc1nc(Nc2ncc(-c3nnc(-c4c(C)cccc4Cl)o3)s2)cc(N2CCN(CCO)CC2)n1", "CLASS_NAME": "no (0)"}
{"SMILES_CODE": "Cc1nc(Nc2ncc(C(=O)Nc3c(C)cccc3Cl)s2)cc(N2CCN(CCNC(=O)CCl)CC2)n1", "CLASS_NAME": "yes (1)"}
{"SMILES_CODE": "Cc1nc(Nc2ncc(-c3cn(-c4c(C)cccc4Cl)nn3)s2)cc(N2CCN(CCN)CC2)n1", "CLASS_NAME": "yes (1)"}

Turning now to a further record.
Does pIC50 meet or surpass 8 for `Cc1nc(Nc2ncc(-c3nnc(-c4c(C)cccc4Cl)o3)s2)cc(N2CCN(CCN)CC2)n1` ?
no (0)

----------
system: HL-60; experiment: Growth inhibition of human HL60 cells; format: functional, cell-based
Binarize IC50 at 10 nM; below is class 1, at or above is class 0.

Previously resolved entries follow.
{"SMILES_CODE": "C=CC(=O)NCCN1CCN(c2cc(Nc3ncc(C(=O)Nc4c(C)cccc4Cl)s3)nc(C)n2)CC1", "TARGET_OR_TEST_SYSTEM": "HL-60", "CLASS_NAME": "class 1"}
{"SMILES_CODE": "C=CC(=O)NCCN1CCN(c2cc(Nc3ncc(-c4cn(-c5c(C)cccc5Cl)nn4)s3)nc(C)n2)CC1", "TARGET_OR_TEST_SYSTEM": "HL-60", "CLASS_NAME": "class 1"}
{"SMILES_CODE": "Cc1nc(Nc2ncc(-c3cn(-c4c(C)cccc4Cl)nn3)s2)cc(N2CCN(CCN=C=S)CC2)n1", "TARGET_OR_TEST_SYSTEM": "HL-60", "CLASS_NAME": "class 0"}
{"SMILES_CODE": "Cc1nc(Nc2ncc(C(=O)Nc3c(C)cccc3Cl)s2)cc(N2CCN(CCN=C=S)CC2)n1", "TARGET_OR_TEST_SYSTEM": "HL-60", "CLASS_NAME": "class 1"}

Please look at the following molecule next.
Check if IC50 falls below 10 nM for `Cc1nc(Nc2ncc(-c3nnc(-c4c(C)cccc4Cl)o3)s2)cc(N2CCN(CCN=C=S)CC2)n1` .
class 0
